Ref: patent US10689383B2

target: human RORγt (Ligand Binding Domain) (Homo sapiens); construct: purchased Crelux (Planegg, Germany) batch no PC5032-1; assay: Fluorescence Polarization (FP) Assay; settings: Fluorescence Polarization (FP) Assay; values given as upper bounds of activity ranges; read-out: FP activity range
Sequence (P51449 269-508 limits assumed): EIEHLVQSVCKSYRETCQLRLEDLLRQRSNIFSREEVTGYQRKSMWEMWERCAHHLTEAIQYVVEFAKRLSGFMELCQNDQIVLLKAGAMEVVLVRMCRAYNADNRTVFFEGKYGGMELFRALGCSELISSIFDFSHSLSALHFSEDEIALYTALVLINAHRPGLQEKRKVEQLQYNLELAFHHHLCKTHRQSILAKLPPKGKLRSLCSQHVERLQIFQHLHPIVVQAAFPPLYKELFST
Measured IC50 accompanies every entry in the list below.
PROPERTY LABEL: IC50

- COc1ccc(Cn2ccc3c(N4CCCC4c4ccc(C(F)(F)F)cc4)ncnc32)cc1OC (stereo not shown): < 1000 nM
- CC1(CNc2ncnc(N3CCCC3c3ccc(C(F)(F)F)cc3)c2F)CCC1 (stereo not shown): < 500 nM
- NS(=O)(=O)c1ccc(CNc2ncnc(N3CCC[C@@H]3c3ccc(C(F)(F)F)cc3)c2F)cc1: < 500 nM
- CC(OC(C)(C)C)[C@@H](Nc1ncnc(N2CCCC2c2ccc(C(F)(F)F)cc2)c1F)C(N)=O (stereo partly shown): < 1000 nM
- CS(=O)(=O)c1ccc(Cn2ccc3c(N4CCOC[C@@H]4c4ccc(OC(F)(F)F)cc4)ncnc32)nc1: < 2000 nM
- COc1cccc(CNc2ncnc(N3CCCC3c3ccc(C(F)(F)F)cc3)c2F)c1OC (stereo not shown): < 1000 nM
- CC(C)(C)C[C@@H](Nc1ncnc(N2CCCC2c2ccc(C(C)(C)C)cc2)c1F)C(N)=O (stereo partly shown): < 500 nM
- CC(C)C[C@@H](Nc1ncnc(N2CC(C)CC2c2ccc(C(F)(F)F)cc2)c1F)C(N)=O (stereo partly shown): < 1000 nM
- NCCNC(=O)C1(CNc2ncnc(N3CCOC[C@@H]3c3ccc(C(F)(F)F)cc3)c2F)CCOCC1: < 10000 nM
- CNC(=O)[C@@H](CC(C)(C)C)N(C)c1ncnc(N2CCCC2c2ccc(C(F)(F)F)cc2)c1F (stereo partly shown): < 10000 nM
- NC(=O)Cc1ccc(CNc2ncnc(N3CCCC3c3ccc4c(c3)OCO4)c2F)cc1 (stereo not shown): < 1000 nM
- Cc1ccc(CNc2ncnc(N3CCC[C@@H]3c3ccc(C(F)(F)F)cc3F)c2F)cn1: < 1000 nM
- Cc1nc(C2CCCN2c2ncnc(NCc3ccc(CC(N)=O)cc3)c2F)no1 (stereo not shown): < 10000 nM
- O=C(O)Cc1ccc(CNc2ncnc(N3CCC[C@@H]3c3ccc(C(F)(F)F)cc3)c2F)s1: < 500 nM
- CS(=O)(=O)N1CCC(CNc2ncnc(N3CCCC3c3ccc(C(F)(F)F)cc3O)c2F)CC1 (stereo not shown): < 500 nM
- COC1(CNc2ncnc(N3CCCC3c3ccc(C(F)(F)F)cc3)c2F)CCOCC1 (stereo not shown): < 500 nM
